system: UO-31 renal; experiment: NCI-60 one-dose screen, 48 h (100 = growth as untreated, 0 = no growth, -100 = all killed); conditions: 10 µM unless noted
The panel holds about 83,000 compounds, 20% with a hit somewhere; the sample as a whole holds those more often.
Recorded growth values for a group of molecules are listed next.
readout.kind: growth (%)

# molecule, recorded.result
records = [
    ("C=C(C)[C@@H]1CC[C@]2(CN)CC[C@]3(C)[C@H](CC[C@@H]4[C@@]5(C)CCC(=O)NC(C)(C)[C@@H]5CC[C@]43C)[C@@H]12", 58.9),
    ("Cn1cc(-c2nc(-c3c[nH]c4ncccc34)cs2)c2ccccc21", 62.4),
    ("CCN1CCN(c2nc(C)cc(N(CCCNc3ccnc4cc(Cl)ccc34)Cc3ccco3)n2)CC1", 33.1),
    ("O=C1c2ccccc2NC(c2cn(-c3ccccc3)nc2-c2cccs2)N1Cc1ccccc1 (centres undefined)", 57.5),
]

---

Recorded growth values for a group of molecules are listed next.
test system: CCRF-CEM leukemia; assay: NCI-60 one-dose screen, 48 h (100 = growth as untreated, 0 = no growth, -100 = all killed); settings: 10 µM unless noted
About 83,000 compounds went through this panel and 20% of them were active in at least one assay; those are over-represented in the sample as a whole. Active and inactive are the calls of the source. The calls were made as follows: active = growth percent below 10; inactive = the rest.
readout.kind: growth

# molecule, measured.on, readout.kind, recorded.result
measured = [
    ("COc1ccc2c(c1)c(-c1nc(-c3c[nH]c4ncccc34)cs1)cn2CCN", "CCRF-CEM leukemia", "growth", "55.8% (inactive)"),
    ("COC1=C(Br)C(=O)C(OC)=C(Br)C1=O", "CCRF-CEM leukemia", "growth", "-12.3% (active)"),
    ("C=C(C)[C@@H]1CC[C@]2(C(=O)O)CC[C@]3(C)[C@H](CC[C@@H]4[C@@]5(C)C/C(=C/c6cccc(I)c6)C(=O)C(C)(C)[C@@H]5CC[C@]43C)[C@@H]12", "CCRF-CEM leukemia", "growth", "25.6% (inactive)"),
    ("COc1ccc2c(c1)c(-c1nc(-c3c[nH]c4ncccc34)cs1)cn2CCNC(=O)OC(C)(C)C", "CCRF-CEM leukemia", "growth", "48.2% (inactive)"),
    ("C=C1C(=O)O[C@H]2[C@H]1CC/C(COC(=O)NCCc1c[nH]c3ccccc13)=C\\CC[C@@]1(C)O[C@@H]21", "CCRF-CEM leukemia", "growth", "3.28% (active)"),
    ("COc1ccc(-c2cc(=O)oc3ccc(Cl)cc23)cc1F", "CCRF-CEM leukemia", "growth", "11.8% (inactive)"),
    ("C#CCn1c2c(c3ccccc31)C[C@]1(C)[C@H]3CC[C@@H]4[C@@H]5C(=CCC[C@H]5C(=C)C)CC[C@@]4(C)[C@]3(C)CC[C@H]1C2(C)C", "CCRF-CEM leukemia", "growth", "114% (inactive)"),
    ("Cn1c(=O)c2c(nc(N3CCCC3)n2C)n(C)c1=O", "CCRF-CEM leukemia", "growth", "105% (inactive)"),
    ("CCOC(=O)C/C(=C\\c1ccccc1)C(C)=O", "CCRF-CEM leukemia", "growth", "90.3% (inactive)"),
    ("C#CCN=C[C@]12CC[C@@H](C(=C)C)[C@@H]1[C@H]1CC[C@@H]3[C@@]4(C)CCC(=O)C(C)(C)[C@@H]4CC[C@@]3(C)[C@]1(C)CC2", "CCRF-CEM leukemia", "growth", "61.3% (inactive)"),
    ("CCCCC[C@H]1CC=C2C(=O)C(Cl)=C[C@@H]2CC=CCCCC(=O)O[C@@H](CCCCC)CC=C2C(=O)C(Cl)=C[C@@H]2CC=CCCCC(=O)O[C@@H](CCCCC)CC=C2C(=O)C(Cl)=C[C@@H]2CC=CCCCC(=O)O1", "CCRF-CEM leukemia", "growth", "7.3% [8 µM] (active)"),
    ("Cc1ccc(-c2nc([P+](c3ccccc3)(c3ccccc3)c3ccccc3)c(N3CCOCC3)o2)cc1", "CCRF-CEM leukemia", "growth", "8.32% (active)"),
    ("COc1cc2[nH]c(C(=O)c3cc(OC)c(OC)c(OC)c3)c(N)c2cc1C#CC1CC1", "CCRF-CEM leukemia", "growth", "24.9% (inactive)"),
    ("O=c1[nH]ncc(Br)c1Br", "CCRF-CEM leukemia", "growth", "27.6% (inactive)"),
    ("COC(=O)[C@]12CC[C@@H](C)[C@H](C)[C@@H]1C1=CC[C@@H]3[C@@]4(C)C(c5ncon5)=C[C@@](C)(CO)C4=CC[C@@]3(C)[C@]1(C)CC2", "CCRF-CEM leukemia", "growth", "-52.5% (active)"),
    ("Cc1ccc2c(c1)c1nc3cc(C)c(C)cc3nc1n2CCN(C)C", "CCRF-CEM leukemia", "growth", "26.4% (inactive)"),
    ("CCSc1ncnc2c1ncn2C1OC(CO)C(O)C1O (configuration not stated)", "CCRF-CEM leukemia", "growth", "23.4% (inactive)"),
]
